Data provenance: patent US6495314

target: T1, Ac-CWAcp-PPPALPPKKR.amide, C3G-derived peptide designed for attachment to an affinity column (N-terminal acetyl; ε-aminocaproic acid (Acp, B) at position 3; C-terminal amide; on the column the Cys side chain is coupled to iodoacetyl agarose (Sulfolink)); assay: 19-member array on C3G peptide affinity column, MALDI MS readout
T1 construct: also called Acetyl-CWAcp-C3G; Ac-CWBPPPALPPKKR.amide
T1 peptide: CWPPPALPPKKR
assayMetric: binding result

c-Crk N-terminal SH3 domain (134-191) analogue, dipeptide DL (150-151) replaced by Gly-[COS]-βAla (other, not fully specified; Gly-[COS]-βAla unit (-NH-CH2-CO-S-CH2-CH2-CO-) in place of D150-L151; backbone thioester, Positions count on murine c-Crk; X = -S-CH2CH2-CO- unit; Tested crude in a pooled array) AEYVRALFDFNGNDEEGXPFKKGDILRIRDKPEEQWWNAEDSEGKRGMIPVPYVEKYR; no binding
c-Crk N-terminal SH3 domain (134-191) analogue, dipeptide KG (155-156) replaced by Gly-[COS]-βAla (other, not fully specified; Gly-[COS]-βAla unit (-NH-CH2-CO-S-CH2-CH2-CO-) in place of K155-G156; backbone thioester, It is one of the 19 dipeptide positions within c-Crk(146-165); Positions count on murine c-Crk; X = -S-CH2CH2-CO- unit; Tested crude in a pooled array) AEYVRALFDFNGNDEEDLPFKGXDILRIRDKPEEQWWNAEDSEGKRGMIPVPYVEKYR; no binding
c-Crk N-terminal SH3 domain (134-191) analogue, dipeptide LR (159-160) replaced by Gly-[COS]-βAla (other, not fully specified; Gly-[COS]-βAla unit (-NH-CH2-CO-S-CH2-CH2-CO-) in place of L159-R160; backbone thioester, Positions count on murine c-Crk; X = -S-CH2CH2-CO- unit; also called Gly-SβAla analogue) AEYVRALFDFNGNDEEDLPFKKGDIGXIRDKPEEQWWNAEDSEGKRGMIPVPYVEKYR; no binding
